- target.system: T1, Human TROP2 ECD (31-274 AA), biotinylated (human, UniProt P09758 31-274, biotinylated (site not stated))
- T1 construct: also called tumor-associated calcium signal transducer 2; Human TROP2-biotin
- T1 sequence: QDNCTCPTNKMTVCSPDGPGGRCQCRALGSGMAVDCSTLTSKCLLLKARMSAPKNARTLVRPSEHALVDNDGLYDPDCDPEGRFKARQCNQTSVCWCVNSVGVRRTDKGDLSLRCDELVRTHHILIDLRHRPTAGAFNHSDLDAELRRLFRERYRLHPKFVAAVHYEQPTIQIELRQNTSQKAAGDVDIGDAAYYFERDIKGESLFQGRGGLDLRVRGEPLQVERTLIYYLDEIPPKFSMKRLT
- method.notes: ELISA: biotinylated TROP2 captured on neutravidin plate, Fab titrated, HRP secondary antibody
Exercise: for every item that follows, state its recorded pEC50.
Just so you know, pEC50 here is -log10 of the concentration in molar units; reply with that number alone.

Consider TBD-8 (anti-TROP2 Fab, LC P95A) (Fab, V domains shown) VH: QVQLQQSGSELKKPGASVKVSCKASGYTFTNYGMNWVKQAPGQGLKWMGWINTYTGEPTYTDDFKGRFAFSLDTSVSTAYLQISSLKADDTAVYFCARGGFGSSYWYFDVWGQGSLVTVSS VL: DIQLTQSPSSLSASVGDRVSITCKASQDVSIAVAWYQQKPGKAPKLLIYSASYRYTGVPDRFSGSGSGTDFTLTISSLQPEDFAVYYCQQHYITALTFGAGTKVEIKR . Its measured pEC50 is 9.70

Per the records, this binder ( TBD-3 (anti-TROP2 Fab, LC Q90A) (Fab, V domains shown) VH: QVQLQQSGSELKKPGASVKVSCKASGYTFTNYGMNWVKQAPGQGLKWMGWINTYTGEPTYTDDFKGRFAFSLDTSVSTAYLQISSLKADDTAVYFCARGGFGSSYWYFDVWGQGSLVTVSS VL: DIQLTQSPSSLSASVGDRVSITCKASQDVSIAVAWYQQKPGKAPKLLIYSASYRYTGVPDRFSGSGSGTDFTLTISSLQPEDFAVYYCQAHYITPLTFGAGTKVEIKR ) has pEC50 equal to 9.57

src = patent US20230357429A1
